Overview of reported glycan array binding signal (z-score) across a group of binders:
Biological target: Gal(a1-3)Gal(b1-4)Glc
Assay: glycan array binding signal (z-score within array); higher = stronger binding
Details: glycan notation: IUPAC condensed, linker removed
This excerpt belongs to a sample that is enriched for the strongest signals.

Binder	glycan array binding signal (z-score)
CrataBL (Crataeva tapia), C0HJA4 (protein) AILTGVPYYILPSTSRAGFSPDNLRKNTSQLSCPLDLITQLRFPRRIGVPVIFTPQNSSLKVVPLSHNLNIHTCSDLWFCPESKIWTVKSSLTHGGSVVTTGGTFRSLGSWFRIERHGDSYKLVHCPRGSTPCRDVGIETVGGGGRRYLAPRDRPLAVRFTRASG	-0.243
Ficolin A (Rattus norvegicus), Q9WTS8 (protein) MWWPMLWAFPVLLCLCSSQALGQESGACPDVKIVGLGAQDKVAVIQSCPSFPGPPGPKGEPGSPAGRGERGLQGSPGKMGPPGSKGEPGTMGPPGVKGEKGERGTASPLGQKELGDALCRRGPRSCKDLLTRGIFLTGWYTIYLPDCRPLTVLCDMDVDGGGWTVFQRRVDGSINFYRDWDSYKRGFGNLGTEFWLGNDYLHLLTANGNQELRVDLREFQGQTSFAKYSSFQVSGEQEKYKLTLGQFLEGTAGDSLTKHNNMAFSTHDQDNDTNGGKNCAALFHGAWWYHDCHQSNLNGRYLPGSHESYADGINWLSGRGHRYSYKVAEMKIRAS	-0.071
CPA (Cicer arietinum) (protein) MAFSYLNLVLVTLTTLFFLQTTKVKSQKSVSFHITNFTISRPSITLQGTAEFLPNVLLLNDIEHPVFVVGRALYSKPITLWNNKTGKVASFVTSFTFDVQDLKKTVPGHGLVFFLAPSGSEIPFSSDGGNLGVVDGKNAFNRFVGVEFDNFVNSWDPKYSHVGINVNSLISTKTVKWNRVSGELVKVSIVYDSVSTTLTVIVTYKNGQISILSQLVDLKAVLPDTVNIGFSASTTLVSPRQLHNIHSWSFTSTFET	0.092
TbCVNHOa (Tuber borchii), Q5MK11 (protein) MSYADSSRNAVLTNGGRTLRAECRNADGNWVTSELDLDTCIGNPNGFLGWGMQNFSHSSEDIKLEEGGRKLTCRPKTVDGGFRERQGIDLNRIQNVNGRLVFQ	1.45

Cited source: the supplement of paper PMC8728848
